STUDY_SYSTEM: T1, Human OSCAR (osteoclast-associated receptor), full length, on cells (human)
T1 chain: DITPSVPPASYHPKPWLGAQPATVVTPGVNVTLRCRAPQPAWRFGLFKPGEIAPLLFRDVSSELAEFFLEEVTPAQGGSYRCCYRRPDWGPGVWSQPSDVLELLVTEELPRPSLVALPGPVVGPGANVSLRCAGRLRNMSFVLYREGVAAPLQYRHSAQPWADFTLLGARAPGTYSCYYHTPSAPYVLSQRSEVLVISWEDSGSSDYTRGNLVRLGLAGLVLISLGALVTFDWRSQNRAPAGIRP
PROTOCOL_NOTES: cell-based or functional assay
QUANTITY_KIND: IC50 (IL-8), ColI-induced IL-8 release from moDC, Donor 3 (nM)
Write it as a number; the unit nM goes unstated.

Example results:
# BINDER, ASSAY_VALUE
measured = [
    ("3F7A9 (antibody, V domains shown, Mouse anti-human OSCAR mAb (its isotype control is mIgG1); The heavy chain entry covers only VH-CH1 and the start of the hinge; also called 3F7A9-1) VH: EIQLQQSGPELVKPGASVKVSCKASGYVFTSYNMYWVKQSHGKSLEWIGYIDPYNGGTRYNQKFKGKATLTVDKSSSTAYMHLNSLTSEDSAVYYCARLDYYGNFYWGQGTTLTVSS VL: DIKMTQSPSSMYASLGERVTITCKASQDINSFLSWLQQKPGKSPKTLIYRANRLVDGVPSRFSGSGSGQDYSLTISSLEYEDMGIYYCLQYDDFPYTFGGGTKLEIKR", 0.41),
    ("7F14A1 (antibody, V domains shown, Mouse anti-human OSCAR mAb; also called 7F14A4) VH: QVQLKESGPGLVAPSQSLSITCSVSGFSLTSYGVHWVRQPPGKGLEWLGVMWAGGSTNYNSALMSRLSISKDNSKSQVFLKMNSLQTDDSAMYYCALQKGYGNYFDYWGQGTTLTVSS VL: QIVLTQSPAIMSASPGEKVTMTCSASSSVNYMHWYQQKSGTSPKRWIYDTSNLASGVPTRFSGSGSGTSYSLTISSMEAEDAATYYCQQWSSDPLTFGAGTKLELKR", 0.62),
]

Ask | Which value of IC50 (IL-8), ColI-induced IL-8 release from moDC, Donor 3 has been reported for 7F10A1 (antibody, V domains shown, Mouse anti-human OSCAR mAb; The heavy chain entry covers only VH-CH1 and the start of the hinge) VH: QVQLQQSGAELARPGASVKLSCKASGYTFTDNYINWVKQRTGQGLEWIGEIYPGSGNTYYNEKFKGKATLTADKSSSTAYMQLSSLTSEDSAVYFCARSANRYDRGDFDYWGQGTPLTVSS VL: QILLTQSPAIMSASPGEKVTMTCSASSSVSYMHWYQQKPGSSPKPWIYDTSNLASGFPARFSGSGSGTSYSLIISSMEAEDAATYYCHQRSSYPYTFGGGTKLEIKR in the records?
Reply | 1.59
